target of assay: T1, 4H607-bA
T1 chain: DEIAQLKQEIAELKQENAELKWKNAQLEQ
assay notes: two-hybrid library CCNG1;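 note: natural log of median RNA to DNA barcode read ratio; higher means stronger binding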
I'd appreciate it if you could supply interaction score values for the items below.
Reply with the value as a number alone.

State the recorded interaction score for this entry: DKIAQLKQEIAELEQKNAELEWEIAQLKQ [4H2610-bA] -1.15

Same lookup for DKNAQLKQKIAELKQEIAELEWENAQLEQ [4H3907-bA] , please. -0.806

Same lookup for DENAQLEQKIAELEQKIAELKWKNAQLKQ [4H1328-bA] , please. -0.918

Same lookup for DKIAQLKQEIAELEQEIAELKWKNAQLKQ [4H2576-bA] , please. -0.213

Same lookup for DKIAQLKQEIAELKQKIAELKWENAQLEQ [4H2667-bA] , please. -1.24

Same lookup for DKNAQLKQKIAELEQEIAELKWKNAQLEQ [4H3855-bA] , please. -0.96

Same lookup for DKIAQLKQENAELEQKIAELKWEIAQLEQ [4H2729-bA] , please. -1.29

Same lookup for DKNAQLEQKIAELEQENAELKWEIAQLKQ [4H3354-bA] , please. -0.0475

Same lookup for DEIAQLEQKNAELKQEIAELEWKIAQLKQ [4H454-bA] , please. -0.773

Same lookup for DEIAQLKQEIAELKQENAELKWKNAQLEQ [4H607-bA] , please. 0.454
